- assayed system: Neutrophil elastase (Homo sapiens) (UniProt P08246)
- procedure summary: Inhibition of Human Leukocyte Elastase, activity is expressed as biomolecular rate constant
observed property: log10(k obs / 1) (log10 of the value in M⁻¹ s⁻¹)

molecule | log10(k obs / 1)
CCC1(CC)C(=O)N(C(=O)NCc2ccccc2)C1Oc1ccc(NC(=O)CCC(=O)O)cc1 (stereo not given) | 3.37
CCC1(CC)C(=O)N(C(=O)NCc2ccccc2)C1Oc1ccccc1[N+](=O)[O-] (stereo not given) | 2.95
CCC1(CC)C(=O)N(C(=O)NCc2ccccc2)C1n1ccnc1 (stereo not given) | 2.30
CCC1(CC)C(=O)N(C(=O)NCc2ccccc2)C1n1ccccc1=O (stereo not given) | 2.56
CCC1(CC)C(=O)N(C(=O)NCc2ccccc2)C1Oc1c(C)cc(C(=O)O)cc1C (stereo not given) | 2.88

* * *

- assayed system: Neutrophil elastase (Homo sapiens)
- Sequence (whole entry): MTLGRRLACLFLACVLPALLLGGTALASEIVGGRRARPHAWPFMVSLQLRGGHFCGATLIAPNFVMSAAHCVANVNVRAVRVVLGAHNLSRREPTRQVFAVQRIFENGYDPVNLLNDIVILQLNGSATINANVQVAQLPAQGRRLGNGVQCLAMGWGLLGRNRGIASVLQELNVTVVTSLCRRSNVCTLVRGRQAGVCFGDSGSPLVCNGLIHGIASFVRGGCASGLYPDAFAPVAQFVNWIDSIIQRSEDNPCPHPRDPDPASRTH
- procedure summary: Inhibition of Human Leukocyte Elastase, activity is expressed as biomolecular rate constant
Classes are defined on k obs / 1 with ranges low band: < 600 M⁻¹ s⁻¹; middle band: ≥ 600 M⁻¹ s⁻¹ and < 3000 M⁻¹ s⁻¹; high band: ≥ 3000 M⁻¹ s⁻¹

compound | assayed system | discrete label
CCC1(CC)C(=O)N(C(=O)NCc2ccccc2)C1Oc1ccc(C(=O)N2CCC[C@@H]2C(=O)O)cc1 (some centres undefined) | Neutrophil elastase (Homo sapiens) | middle band
CCC1(CC)C(=O)N(C(=O)NCc2ccccc2)C1Oc1ccc(CC(NC(=O)c2ccccc2)C(=O)O)cc1 (centres undefined) | Neutrophil elastase (Homo sapiens) | high band
CCC1(CC)C(=O)N(C(=O)NCc2ccccc2)C1Sc1nnnn1C (centres undefined) | Neutrophil elastase (Homo sapiens) | high band
CCC1(CC)C(=O)N(C(=O)NCc2ccccc2)C1Oc1cccc(CC(=O)O)c1 (centres undefined) | Neutrophil elastase (Homo sapiens) | middle band
CCC1(CC)C(=O)N(C(=O)NCc2ccccc2)C1Oc1cccc(C(=O)O)c1 (centres undefined) | Neutrophil elastase (Homo sapiens) | middle band
CCC1(CC)C(=O)N(C(=O)NCc2ccccc2)C1N1C=NC=CN1 (centres undefined) | Neutrophil elastase (Homo sapiens) | low band
CCC1(CC)C(=O)N(C(=O)NCc2ccccc2)C1Oc1ccccc1 (centres undefined) | Neutrophil elastase (Homo sapiens) | middle band
CCC1(CC)C(=O)N(C(=O)NCc2ccccc2)C1C(=O)c1ccccc1 (centres undefined) | Neutrophil elastase (Homo sapiens) | low band
CCC1(CC)C(=O)N(C(=O)NCc2ccccc2)C1Oc1cccc([N+](=O)[O-])c1 (centres undefined) | Neutrophil elastase (Homo sapiens) | high band
CCC1(CC)C(=O)N(C(=O)NCc2ccccc2)C1Oc1ccc(C(=O)CCC(=O)O)cc1 (centres undefined) | Neutrophil elastase (Homo sapiens) | high band
CCC1(CC)C(=O)N(C(=O)NCc2ccccc2)C1Sc1cccnc1 (centres undefined) | Neutrophil elastase (Homo sapiens) | low band
CCC1(CC)C(=O)N(C(=O)NCc2ccccc2)C1OCC(O)CO (centres undefined) | Neutrophil elastase (Homo sapiens) | middle band
CCC1(CC)C(=O)N(C(=O)NCc2ccccc2)C1Oc1ccc2cc(C(=O)O)ccc2c1 (centres undefined) | Neutrophil elastase (Homo sapiens) | high band
CCC1(CC)C(=O)N(C(=O)NCc2ccccc2)C1Oc1cccc(NC(C)=O)c1 (centres undefined) | Neutrophil elastase (Homo sapiens) | middle band
CCC1(CC)C(=O)N(C(=O)NCc2ccccc2)C1Oc1ccc(CC(N)C(=O)O)cc1 (centres undefined) | Neutrophil elastase (Homo sapiens) | middle band
CCC1(CC)C(=O)N(C(=O)NCc2ccccc2)C1OCC(=O)O (centres undefined) | Neutrophil elastase (Homo sapiens) | low band
CCC1(CC)C(=O)N(C(=O)NCc2ccccc2)C1Oc1ccc(CC(NC(=O)CCC(=O)O)C(=O)O)cc1 (centres undefined) | Neutrophil elastase (Homo sapiens) | middle band
CCC1(CC)C(=O)N(C(=O)NCc2ccccc2)C1Oc1ccccc1NC(=O)CCC(=O)O (centres undefined) | Neutrophil elastase (Homo sapiens) | low band
CCC1(CC)C(=O)N(C(=O)NCc2ccccc2)C1Oc1ccc([S+](C)[O-])cc1 (centres undefined) | Neutrophil elastase (Homo sapiens) | high band
CCC1(CC)C(=O)N(C(=O)NCc2ccccc2)C1Oc1ccc(CCC(=O)O)cc1 (centres undefined) | Neutrophil elastase (Homo sapiens) | middle band
CCC1(CC)C(=O)N(C(=O)NCc2ccccc2)C1Oc1ccccc1NC(C)=O (centres undefined) | Neutrophil elastase (Homo sapiens) | low band
CCC1(CC)C(=O)N(C(=O)NCc2ccccc2)C1Oc1ccccc1CC(=O)O (centres undefined) | Neutrophil elastase (Homo sapiens) | low band
CCC1(CC)C(=O)N(C(=O)NCc2ccccc2)C1Oc1ccc([N+](=O)[O-])cc1 (centres undefined) | Neutrophil elastase (Homo sapiens) | high band
CCC1(CC)C(=O)N(C(=O)NCc2ccccc2)C1N1N=CC=CN1Cc1ccccc1 (centres undefined) | Neutrophil elastase (Homo sapiens) | middle band

* * *

- assayed system: Neutrophil elastase (Homo sapiens) (UniProt P08246)
- procedure summary: Inhibition of Human Leukocyte Elastase induced lung hemorrhage in hamsters expressed as % inhibition (mean of 4 animals)
- Type: functional
- Set-up: concentration or dose not given beside the values
- condition label: concentration not given here
Note: every record was labeled by where its inhibition sits among class A = under 10%, class B = from 10% up to 50%, class C = 50% and over

molecule | discrete label
CCC1(CC)C(=O)N(C(=O)NCc2ccccc2)C1OCC(=O)O (centres undefined) | class A
CCC1(CC)C(=O)N(C(=O)NCc2ccccc2)C1Oc1ccc(CC(NC(=O)CCC(=O)O)C(=O)O)cc1 (centres undefined) | class A
CCC1(CC)C(=O)N(C(=O)NCc2ccccc2)C1Oc1ccc(/C=C/C(=O)O)cc1 (centres undefined) | class C
CCC1(CC)C(=O)N(C(=O)NCc2ccccc2)C1Oc1ccc(C(=O)NS(=O)(=O)c2ccc(Cl)cc2)cc1 (centres undefined) | class B
CCC1(CC)C(=O)N(C(=O)NCc2ccccc2)C1Oc1ccc(C(O)C(=O)O)cc1 (centres undefined) | class B
CCC1(CC)C(=O)N(C(=O)NCc2ccccc2)C1Oc1cccc(C(=O)O)c1 (centres undefined) | class B
CCC1(CC)C(=O)N(C(=O)NCc2ccccc2)C1OCC(O)CO (centres undefined) | class B
CCC1(CC)C(=O)N(C(=O)NCc2ccccc2)C1Oc1ccc(S(C)(=O)=O)cc1 (centres undefined) | class B
CCC1(CC)C(=O)N(C(=O)NCc2ccccc2)C1Oc1ccc(CCC(=O)O)cc1 (centres undefined) | class C

* * *

- assayed system: Neutrophil elastase (Homo sapiens) (UniProt P08246)
- Sequence (whole entry): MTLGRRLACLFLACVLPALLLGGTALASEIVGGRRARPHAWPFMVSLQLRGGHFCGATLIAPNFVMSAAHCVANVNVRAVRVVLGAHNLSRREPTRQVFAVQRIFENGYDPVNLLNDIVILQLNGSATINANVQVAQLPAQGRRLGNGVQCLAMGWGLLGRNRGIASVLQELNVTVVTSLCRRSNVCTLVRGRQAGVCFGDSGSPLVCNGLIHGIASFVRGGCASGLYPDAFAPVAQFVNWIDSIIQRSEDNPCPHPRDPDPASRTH
- procedure summary: Inhibition of Human Leukocyte Elastase, activity is expressed as biomolecular rate constant
# if value of k obs / 1 reaches 2000 M⁻¹ s⁻¹, tag met; if it stays below, tag not met

molecule | assayed system | discrete label
CCC1(CC)C(=O)N(C(=O)NCc2ccccc2)C1Oc1ccc(S(C)(=O)=O)cc1 (centres undefined) | Neutrophil elastase (Homo sapiens) (UniProt P08246) | met
CCC1(CC)C(=O)N(C(=O)NCc2ccccc2)C1Oc1ccc(C(=O)NS(=O)(=O)c2ccc(Cl)cc2)cc1 (centres undefined) | Neutrophil elastase (Homo sapiens) (UniProt P08246) | met
CCC1(CC)C(=O)N(C(=O)NCc2ccccc2)C1Oc1cc(C)c(C(=O)O)c(C)c1 (centres undefined) | Neutrophil elastase (Homo sapiens) (UniProt P08246) | not met
CCC1(CC)C(=O)N(C(=O)NCc2ccccc2)C1OCc1ccc(C(=O)O)cc1 (centres undefined) | Neutrophil elastase (Homo sapiens) (UniProt P08246) | not met
CCC1(CC)C(=O)N(C(=O)NCc2ccccc2)C1Oc1ccc(/C=C/C(=O)O)cc1 (centres undefined) | Neutrophil elastase (Homo sapiens) (UniProt P08246) | not met
CCC1(CC)C(=O)N(C(=O)NCc2ccccc2)C1Oc1ccc(CN(C)C)cc1 (centres undefined) | Neutrophil elastase (Homo sapiens) (UniProt P08246) | not met
CCC1(CC)C(=O)N(C(=O)NCc2ccccc2)C1Oc1cccnc1 (centres undefined) | Neutrophil elastase (Homo sapiens) (UniProt P08246) | not met
CCC1(CC)C(=O)N(C(=O)NCc2ccccc2)C1Oc1ccc(C[N+](C)(C)C)cc1 (centres undefined) | Neutrophil elastase (Homo sapiens) (UniProt P08246) | met
CCC1(CC)C(=O)N(C(=O)NCc2ccccc2)C1Oc1ccc(NC(C)=O)cc1 (centres undefined) | Neutrophil elastase (Homo sapiens) (UniProt P08246) | met

Origin of values: ChEMBL document CHEMBL1127040
